# Tested on: UACC-257 melanoma
# PROTOCOL_SUMMARY: NCI tumour cell line growth inhibition, 48 h; in the data active means GI50 below about 0.43 µM; inactive means the rest
In this exercise, the only acceptable responses are active, inactive

See these solved cases before continuing.
c1cc(C2CCCCC2)ccc1OCCCCCCN1CCNCC1 : inactive
N#Cc1c2ccccc2c2n1-c1ccccc1OC(c1ccccc1)C2=O (stereo unspecified) : inactive
COc1ccc(Nc2ncccc2/C=C/C(=O)c2cc(OC)c(OC)c(OC)c2)cc1 : inactive
CC(=N\O)/C(C)=N/O.CC(=N\O)/C(C)=N/O.CC(=N\O)/C(C)=N/O.CC(=N\O)/C(C)=N/O.[Cu].[Cu] : inactive
OCCCCC#Cc1ccccc1C#Cc1ccccc1F : inactive
C=C1C(=O)O[C@H]2[C@H]1CC/C(CNC(=O)/C=C/c1cccc(OC)c1)=C\CC[C@@]1(C)O[C@@H]21 : inactive
O=CN1N=C(c2ccc(Nc3ccnc4cc(Cl)ccc34)cc2)CC1c1ccccc1 (stereo unspecified) : inactive
COc1cc([C@@H]2c3cc4c(cc3C(Br)[C@H]3COC(=O)[C@H]23)OCO4)cc(OC)c1OC (stereo partly specified) : active

In: Please let me know the test result on file for NS(=O)(=O)c1ccc(C2C3=C(CCCC3=O)OC3=C2C(=O)c2ccccc2C3=O)cc1 (stereo unspecified) .
Out: active

In: Further, for `Cc1ccccc1S(=O)(=O)N1[C@H](c2ccc(Cl)cc2)C(C(=O)N[C@@H](Cc2ccccc2)C(N)=O)=C[C@@H]1C(C)(C)C` ?
Out: inactive

In: Further, for `COc1cc(N=Nc2ccccc2)cc(/C=N\[N-]C(N)=S)c1[O-].COc1cc(N=Nc2ccccc2)cc(/C=N\[N-]C(N)=S)c1[O-].[Fe+4]` ?
Out: inactive

In: Further, for `Cc1cccc2nc3cccc(C(=O)NCCC[N+](C)(CCCNC(=O)c4cccc5nc6cccc(C)c6nc45)Cc4c([N+](=O)[O-])ncn4C)c3nc12` ?
Out: inactive

In: Further, for `COc1ccc(Nc2ccnc(NCCNc3ccnc4cc(Cl)ccc34)n2)cc1` ?
Out: inactive

In: Further, for `CNC(=O)c1c(NC(=O)c2cccc(C(F)(F)F)c2)sc2c1CCC(=O)C2` ?
Out: inactive

In: Further, for `Cn1c(=O)c(Oc2cccc(F)c2)cc2cnc(NC3CCOCC3)nc21` ?
Out: inactive

---

# System: 786-0 renal
# PROTOCOL_SUMMARY: NCI tumour cell line growth inhibition, 48 h
MEASUREMENT_LABEL: TGI (µM)
Respond numerically; units are µM and should not be typed.

C=C(CC(=O)Nc1ccc(C(=O)OC)o1)C(=O)OC : 39.6
CCCCCCCCCCCCCC[P+](CCCCCC)(CCCCCC)CCCCCC : 2.1
Nc1ccc(-c2nc3cc(F)ccc3s2)cc1I : 32

Now for another entry.
In: Quick check: TGI on 786-0 renal, item `Cc1[nH]c(C(=O)Nc2ccc(C(=O)N3CCNCC3)cc2OC(C)C)c(Cl)c1Cl` ?
Out: 3.18

---

# Tested on: A498 renal
# PROTOCOL_SUMMARY: NCI tumour cell line growth inhibition, 48 h
Listed here are compounds together with their documented GI50.

CC/C=C\C/C=C\C[C@H](O)C/C=C1/C(=O)C=C[C@H]1C/C=C\CCC(=O)OC : > 8250 nM
COC(=O)Nc1nc2ccc(Oc3ccc(NC(=O)Nc4cccc(Br)c4)cc3)cc2[nH]1 : 2100 nM
COc1ccc(Nc2ncccc2/C=C/C(=O)c2cc(OC)c(OC)c(OC)c2)cc1 : 3190 nM
CC1=C(C(=O)Nc2ccc3[nH]ncc3c2)C(c2ccc(F)cc2)NC(=O)N1 (stereo not given) : > 14600 nM

Now for another entry.
In: Could you share which GI50 value was measured for `CN(C)c1ccc(C(=O)c2ccc(N(C)C)c(N)c2)cc1N` ?
Out: 1030 nM
